Tested on: Tryptophan 5-hydroxylase 1 (Homo sapiens, UniProt P17752)
Sequence (P17752 whole entry): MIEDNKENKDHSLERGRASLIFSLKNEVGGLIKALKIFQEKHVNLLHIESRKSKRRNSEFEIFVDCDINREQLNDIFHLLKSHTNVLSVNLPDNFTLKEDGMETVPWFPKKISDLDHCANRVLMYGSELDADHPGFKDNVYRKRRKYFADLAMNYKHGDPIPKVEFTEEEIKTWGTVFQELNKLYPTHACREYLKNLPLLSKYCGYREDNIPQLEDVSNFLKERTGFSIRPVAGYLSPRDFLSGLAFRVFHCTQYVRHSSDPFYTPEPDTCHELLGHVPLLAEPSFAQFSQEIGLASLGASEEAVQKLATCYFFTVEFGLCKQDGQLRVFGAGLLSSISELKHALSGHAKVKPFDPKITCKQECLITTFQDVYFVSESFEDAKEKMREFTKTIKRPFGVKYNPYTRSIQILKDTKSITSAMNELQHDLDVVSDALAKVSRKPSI
pIC50: −log10 of the molar value.
Literature survey of pIC50 (system: Tryptophan 5-hydroxylase 1 (Homo sapiens, UniProt P17752)).

Smiles notation	pIC50
CCn1c(=O)[nH]c(=O)c2c1nc(Cc1cn3ccsc3n1)n2CC(=O)c1ccc(CO)cc1	6.56
C[C@@H](Nc1nc(N)nc(N2CCC(C[C@H](N)C(=O)O)CC2)n1)c1ccc2ccccc2c1	6.11
N[C@@H](Cc1ccc(-c2cnc(NCC3CCCCC3)cn2)cc1)C(=O)O	6.62
Nc1nc(O[C@H](c2ccc(Cl)cc2-c2cccc(S(N)(=O)=O)c2)C(F)(F)F)cc(N2CCC3(CC2)CN[C@H](C(=O)O)C3)n1	7.96
